Tested on: human nerve extract
Assay: Phage display selection on plates coated with human nerve extract (Plated Nerve2), NextGen sequence counts
Assay type: binding
Settings: unique sequence count (relative enrichment); Plated Nerve2 only
So I've got a bunch of substances here, and I need their Count values.
Numbers only.

Below, 3 substances whose answers are already recorded.
substance="537 (QLRSEDTYYTMQSY) [compound 537]" assay_target="human nerve extract" assay_result=38
substance="522 (QTPAEKPYYVVKKY) [compound 522]" assay_target="human nerve extract" assay_result=41
substance="473 (QIRWDETYYDIQKT) [compound 473]" assay_target="human nerve extract" assay_result=55

Count: 8. Required value per item: Count.
1. 476 (HVPVLEPYDLVKKS) [compound 476]
2. 557 (QLPTNDPYYVLMES) [compound 557]
3. 513 (HVPSYAPNYEIKES) [compound 513]
4. 554 (QFPYDEPYNVVKKS) [compound 554]
5. 545 (RVTWEGPYNSVKKS) [compound 545]
6. 496 (QLQWQKSNWVGKIT) [compound 496]
7. 503 (HVWLEDTISAEKKS) [compound 503]
8. 463 (QLPLYDPYYTVRTS) [compound 463]

Given back:
1. 54
2. 36
3. 43
4. 36
5. 37
6. 49
7. 46
8. 63

Count: 7. Required value per item: Count.
1. 484 (RFPADEEHYVGKLS) [compound 484]
2. 523 (HVPSQEWYYDLHKS) [compound 523]
3. 535 (QLLWGESYSIVKNY) [compound 535]
4. 548 (EFPYQESEYIVKQS) [compound 548]
5. 497 (EIPWEGTYRLVKHS) [compound 497]
6. 534 (QIPLQDPYHVVEKS) [compound 534]
7. 502 (DVASGEQSYIVVKY) [compound 502]

Given back:
1. 53
2. 40
3. 38
4. 36
5. 48
6. 38
7. 46

Count: 5. Required value per item: Count.
1. 518 (HLSMEAPYYGVKEY) [compound 518]
2. 454 (HVELESSYYFVNNS) [compound 454]
3. 461 (QFGWEEPYYVLHTV) [compound 461]
4. 495 (HLSVAEPYYAVRNS) [compound 495]
5. 468 (YDPSGEPYYRVNNH) [compound 468]

Given back:
1. 41
2. 78
3. 65
4. 49
5. 59

Count: 7. Required value per item: Count.
1. 553 (QDPFGDLYYVTKMS) [compound 553]
2. 527 (HVSWSTSKYVVNHS) [compound 527]
3. 549 (GLPSKEPYYVVKPA) [compound 549]
4. 541 (LLTGAEPYYLGKRS) [compound 541]
5. 509 (QRPGDEPSYFVKNS) [compound 509]
6. 475 (ALPWEHPWCVSKNC) [compound 475]
7. 471 (AIPSGAPYYKVNKY) [compound 471]

Given back:
[36, 39, 36, 37, 45, 54, 56]
